subjectOfTest: ALK5 (Homo sapiens, UniProt P36897)
Sequence (P36897 34-503): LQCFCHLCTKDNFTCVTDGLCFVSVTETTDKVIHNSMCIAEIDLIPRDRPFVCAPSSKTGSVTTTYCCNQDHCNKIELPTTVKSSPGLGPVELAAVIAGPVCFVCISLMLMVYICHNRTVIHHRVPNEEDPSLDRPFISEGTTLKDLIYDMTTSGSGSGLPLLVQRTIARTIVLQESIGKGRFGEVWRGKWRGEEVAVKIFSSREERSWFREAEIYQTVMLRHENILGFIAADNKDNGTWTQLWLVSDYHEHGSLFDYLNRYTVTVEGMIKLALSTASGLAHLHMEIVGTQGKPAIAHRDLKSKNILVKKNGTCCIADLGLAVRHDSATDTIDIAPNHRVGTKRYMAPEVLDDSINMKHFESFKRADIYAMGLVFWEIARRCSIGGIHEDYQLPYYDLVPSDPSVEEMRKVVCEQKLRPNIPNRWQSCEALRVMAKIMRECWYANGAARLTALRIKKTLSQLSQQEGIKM
procedureSummary: ALK5 nanobret assay in HEK293 cells transfected with ALK5-Nanoluc fusion
Format: binding
setupConditions: luciferase tagged ALK5, fluorescent tracer competition (BRET), structure (I) tested as HCl salt
assayEndpoint: pIC50
Just so you know, pIC50 here is -log10 of the concentration in molar units; reply with that number alone.

Q: # get_value(readout= pIC50, system= ALK5 (Homo sapiens, UniProt P36897)) for COc1cc(Nc2nccc(Nc3cccnc3-c3ccccn3)n2)ccc1N1CCN(C)CC1 [compound of structure (I)]
Ans: 5.64

---

subjectOfTest: ALK5 (Homo sapiens)
procedureSummary: Rhabdomyosarcoma (RD) cell SMAD reporter (RDSR) assay
Type: cell-based
Design: The RD cell line was transfected with the pGL4.48(luc2P/SBE/Hygro) vector; endogenous in cells; host or cells: RD rhabdomyosarcoma cells stably transfected with the SBE-luciferase reporter only
setupConditions: RD cells transfected with pGL4.48(luc2P/SBE/Hygro) vector, pretreated with drug, induced with 50 pg/mL TGFβ1 for up to 24 hours; structure (I) tested as HCl salt
assayEndpoint: pIC50
Just so you know, pIC50 here is -log10 of the concentration in molar units; reply with that number alone.

Q: Would you kindly share the measured pIC50 for `COc1cc(Nc2nccc(Nc3cccnc3-c3ccccn3)n2)ccc1N1CCN(C)CC1` ?
Ans: 6.51
